Test system: Canis familiaris
Test description: Saluretic activity in the dog measured as concentration of Na+ in urinary excretion (2 animals/dose) at (dose 1.56 mg/Kg, perorally)
Assay type: functional, Canis lupus familiaris, Urine
Endpoint: Saluretic activity
State the result as a value with its unit after it.

For the record NS(=O)(=O)c1cc(S(=O)(=O)[O-])c(NCc2cccs2)cc1Oc1ccccc1.[K+] , what value of Saluretic activity is listed for Canis familiaris? 3.73 m equiv 6hr-1 kg-1

Provide the documented Saluretic activity with Canis familiaris as the system for N.NS(=O)(=O)c1cc(S(=O)(=O)O)c(NCc2ccccc2)cc1Oc1ccccc1 3.12 m equiv 6hr-1 kg-1

Record lookup: for Canis familiaris, what Saluretic activity belongs to NS(=O)(=O)c1cc(S(=O)(=O)[O-])c(NCCc2ccco2)cc1Cl.[Na+] ? 0.56 m equiv 6hr-1 kg-1

# value lookup — system Canis familiaris, readout Saluretic activity, item CN(c1ccccc1)c1cc(NCc2ccco2)c(S(=O)(=O)[O-])cc1S(N)(=O)=O.[Na+] 5.74 m equiv 6hr-1 kg-1

The reported measurements were obtained from ChEMBL document CHEMBL1122273.
